- assayTarget: hSULT1A3 (Homo sapiens)
- Construct: 6-histidine tag (N); TEV site (N); made in house; host or cells: Escherichia coli BL21 (DE3), pET29a(+)
- experimentNotes: Fluorescence-based microplate inhibition assay, hSULT1A3-catalyzed HN-241 4-O-sulfation
- Assay type: biochemical
- runParameters: test compound 10 μM, HN-241 10 μM, 15 min; read-out: Residue activity (%) hSULT1A3
endpointLabel: activity at 10 µM (%)

- O=C1c2cccc(O)c2C(=O)c2c(O)cc(CO)cc21 [Aloeemodin]: 61.3
- COc1c(O)cc2c(c1O)C(=O)c1c(cc(C)c(O)c1OC)C2=O [Aurantio-obtusin]: 45.2
- COc1c(O)cc2occ(-c3ccc(O)cc3)c(=O)c2c1O [Tectorigenin]: 86.8
- COc1ccc(-c2cc(=O)c3c(O)cc(O)cc3o2)cc1O [Diosmetin]: 39.1
- Cc1cc(O)c2c(c1)C(=O)c1cc(O)cc(O)c1C2=O [Emodin]: 65

* * *

- assayTarget: hSULT1A3 (Homo sapiens, UniProt P0DMM9)
- Construct: 6-histidine tag (N); TEV site (N); made in house; host or cells: Escherichia coli BL21 (DE3), pET29a(+)
- Sequence (P0DMM9 whole entry): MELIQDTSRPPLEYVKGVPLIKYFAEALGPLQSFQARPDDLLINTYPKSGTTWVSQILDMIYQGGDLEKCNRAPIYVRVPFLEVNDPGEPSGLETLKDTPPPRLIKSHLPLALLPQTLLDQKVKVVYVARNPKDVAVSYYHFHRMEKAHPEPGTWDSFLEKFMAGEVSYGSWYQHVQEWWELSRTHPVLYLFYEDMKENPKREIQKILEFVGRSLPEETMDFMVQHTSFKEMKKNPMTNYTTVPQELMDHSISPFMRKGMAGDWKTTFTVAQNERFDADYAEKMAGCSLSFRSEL
- experimentNotes: Fluorescence-based microplate inhibition assay, hSULT1A3-catalyzed HN-241 4-O-sulfation
- Format: biochemical
- runParameters: test compound 10 μM, HN-241 10 μM, 15 min
endpointLabel: Residue activity (%) hSULT1A3

* CC(C)=CCC[C@@](C)(O)[C@H]1CC[C@]2(C)[C@@H]1[C@H](O)C[C@@H]1[C@@]3(C)CC[C@H](O)C(C)(C)[C@@H]3[C@@H](O[C@@H]3O[C@H](CO)[C@@H](O)[C@H](O)[C@H]3O[C@@H]3O[C@@H](C)[C@H](O)[C@@H](O)[C@H]3O)C[C@]12C [20(R)-Ginsenoside Rg2] | 122.28
* CC(C)=CCC[C@](C)(O)[C@H]1CC[C@]2(C)[C@@H]1[C@H](O)C[C@@H]1[C@@]3(C)CC[C@H](O)C(C)(C)[C@@H]3CC[C@]12C [(20S)-Protopanaxdiol] | 81.62
* CC(C)=CCC[C@](C)(O)[C@H]1CC[C@]2(C)[C@@H]1[C@H](O)C[C@@H]1[C@@]3(C)CC[C@H](O[C@@H]4O[C@H](CO)[C@@H](O)[C@H](O)[C@H]4O)C(C)(C)[C@@H]3CC[C@]12C [20(S)-Ginsenoside Rh2] | 105.44
* C[C@H]1C(=O)O[C@@H]2CCN3CC=C(COC(=O)[C@](C)(O)[C@]1(C)O)[C@H]23 | 122.18

* * *

activity at 1 µM values for the molecules below.
- assayTarget: hSULT1A1 (Homo sapiens)
- Construct: 6-histidine tag (N); TEV site (N); made in house; host or cells: Escherichia coli BL21 (DE3), pET29a(+)
- Sequence (P50225 whole entry): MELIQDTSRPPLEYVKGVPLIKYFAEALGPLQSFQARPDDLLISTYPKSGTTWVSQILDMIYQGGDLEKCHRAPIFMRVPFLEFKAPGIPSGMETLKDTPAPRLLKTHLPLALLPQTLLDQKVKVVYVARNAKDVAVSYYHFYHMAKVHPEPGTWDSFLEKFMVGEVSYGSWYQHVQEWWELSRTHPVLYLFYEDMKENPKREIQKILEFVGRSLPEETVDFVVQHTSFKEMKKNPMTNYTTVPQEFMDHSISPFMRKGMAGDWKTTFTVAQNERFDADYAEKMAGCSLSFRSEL
- experimentNotes: Fluorescence-based microplate inhibition assay, hSULT1A1-catalyzed HN-241 4-O-sulfation;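 note: reaction started with 200 µM PAPS at 37 °C, fluorescence read continuously (Ex 350 nm, Em 450 nm), activity expressed relative to DMSO-only control without inhibitor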
- Format: biochemical
- runParameters: read-out: Residue activity (%) hSULT1A1
endpointLabel: activity at 1 µM (%)

• C=C(C)[C@H]1Cc2c(ccc3c2O[C@@H]2COc4cc(OC)c(OC)cc4[C@@H]2C3=O)O1 = 109
• C[C@]12CC[C@H](O)C[C@H]1CC[C@@H]1[C@@H]2CC[C@]2(C)[C@@H](c3ccc(=O)oc3)C[C@H]3O[C@]132 = 127
• C[C@]12CC[C@H](O)C[C@H]1CC[C@@H]1[C@@H]2CC[C@]2(C)[C@@H](c3ccc(=O)oc3)CC[C@]12O = 103
• COc1cc([C@@H]2c3cc4c(cc3[C@H](O)[C@H]3COC(=O)[C@H]23)OCO4)cc(OC)c1OC = 110

* * *

- assayTarget: hSULT1A2 (Homo sapiens)
- Construct: 6-histidine tag (N); TEV site (N); made in house; host or cells: Escherichia coli BL21 (DE3), pET29a(+)
- experimentNotes: Fluorescence-based microplate inhibition assay, hSULT1A2-catalyzed HN-241 4-O-sulfation
- Format: biochemical
- runParameters: 0.25 h; test compound 10 μM, HN-241 5 μM, 15 min; read-out: Residue activity (%) hSULT1A2
endpointLabel: remaining activity at 10 µM (%)

• O=c1c(O)c(-c2ccc(O)cc2O)oc2cc(O)cc(O)c12 = 4.73
• Cc1cc(O)c2c(c1)C(=O)c1cccc(O)c1C2=O = 45.4
• O=C1C[C@@H](c2ccc(O[C@@H]3O[C@H](CO)[C@@H](O)[C@H](O)[C@H]3O)cc2)Oc2cc(O)ccc21 = 95.1
• COc1c(/C=C/C(=O)c2ccc(O)c(CC=C(C)C)c2)ccc(O)c1O = 0.21
• CCCCCCCCCCCCCCCC(=O)O = 84.8
• C[C@H](CCC(=O)O)[C@H]1CC[C@H]2[C@@H]3[C@H](O)C[C@@H]4C[C@H](O)CC[C@]4(C)[C@H]3CC[C@]12C = 98.2
• COc1ccc(-c2cc(=O)c3c(O)cc(O)cc3o2)cc1 = 0.47
• COc1ccc(-c2cc(=O)c3c(O)cc(O)cc3o2)cc1-c1c(O)cc(O)c2c(=O)cc(-c3ccc(O)cc3)oc12 = 0
• CC(C)=CCC[C@](C)(O)[C@H]1CC[C@]2(C)[C@@H]1[C@H](O)C[C@@H]1[C@@]3(C)CC[C@H](O)C(C)(C)[C@@H]3[C@@H](O[C@@H]3O[C@H](CO)[C@@H](O)[C@H](O)[C@H]3O[C@@H]3O[C@H](CO)[C@@H](O)[C@H](O)[C@H]3O)C[C@]12C [Ginsenoside Rf] = 104
• CC(C)=CCOc1c2occc2cc2ccc(=O)oc12 = 94.3
• CC1(C)CC[C@]2(C(=O)O)CC[C@]3(C)C(=CC[C@@H]4[C@@]5(C)CC[C@H](O)C(C)(C)[C@@H]5CC[C@]43C)[C@@H]2C1 = 101
• CC(C)=CCOc1c2ccoc2cc2oc(=O)ccc12 = 106
• COc1c(O)cc2occ(-c3ccc(O)cc3)c(=O)c2c1O = 4.26
• COc1ccc(-c2oc3c(CC=C(C)C)c(O[C@@H]4O[C@H](CO)[C@@H](O)[C@H](O)[C@H]4O)cc(O)c3c(=O)c2O[C@@H]2O[C@@H](C)[C@H](O)[C@@H](O)[C@H]2O)cc1 = 85.1
• CC(C)Oc1ccc2c(=O)c(-c3ccccc3)coc2c1 = 89.5
• COc1c2occc2cc2ccc(=O)oc12 = 110
• COC1=C[C@@H]2[C@@H]3Cc4ccc(OC)c(O)c4[C@]2(CCN3C)CC1=O = 103

* * *

Residue activity (%) hSULT1A2 values for the compounds below.
- assayTarget: hSULT1A2 (Homo sapiens, UniProt P50226)
- Construct: 6-histidine tag (N); TEV site (N); made in house; host or cells: Escherichia coli BL21 (DE3), pET29a(+)
- Sequence (P50226 whole entry): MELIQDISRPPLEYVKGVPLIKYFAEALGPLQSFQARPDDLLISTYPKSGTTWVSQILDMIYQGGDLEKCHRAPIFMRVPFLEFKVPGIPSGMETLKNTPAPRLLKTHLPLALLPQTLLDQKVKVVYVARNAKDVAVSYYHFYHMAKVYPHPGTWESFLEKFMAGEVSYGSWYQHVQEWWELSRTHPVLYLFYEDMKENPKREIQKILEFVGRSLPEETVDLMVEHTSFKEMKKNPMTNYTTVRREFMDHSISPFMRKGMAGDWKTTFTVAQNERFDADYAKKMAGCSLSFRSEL
- experimentNotes: Fluorescence-based microplate inhibition assay, hSULT1A2-catalyzed HN-241 4-O-sulfation
- Format: biochemical
- runParameters: test compound 10 μM, HN-241 5 μM, 15 min
endpointLabel: Residue activity (%) hSULT1A2

* CC(C)=CC/C=C(/C)[C@H]1CC[C@]2(C)[C@@H]1[C@H](O)C[C@@H]1[C@@]3(C)CC[C@H](O)C(C)(C)[C@@H]3[C@@H](O[C@@H]3O[C@H](CO)[C@@H](O)[C@H](O)[C@H]3O[C@@H]3O[C@@H](C)[C@H](O)[C@@H](O)[C@H]3O)C[C@]12C [Ginsenoside F4] | 89.89
* CC(C)=CCC[C@@](C)(O)[C@H]1CC[C@]2(C)[C@@H]1[C@H](O)C[C@@H]1[C@@]3(C)CC[C@H](O)C(C)(C)[C@@H]3[C@@H](O[C@@H]3O[C@H](CO)[C@@H](O)[C@H](O)[C@H]3O[C@@H]3O[C@@H](C)[C@H](O)[C@@H](O)[C@H]3O)C[C@]12C [20(R)-Ginsenoside Rg2] | 104.32
* COc1cc(O)c2c(c1)C(=O)c1cc(C)cc(O)c1C2=O | 89.81
* COc1cc2c(c(OC)c1OC)-c1c(cc(OC)c(OC)c1OC)C[C@](C)(O)[C@@H](C)C2 | 102.92
* O=c1cc(-c2ccccc2)oc2ccc(O)c(O)c12 [5,6-Dihydroxy-2-phenylchromen-4-one] | 8.07

* * *

activity at 10 µM values for the compounds below.
- assayTarget: hSULT1A3 (Homo sapiens, UniProt P0DMM9)
- Construct: 6-histidine tag (N); TEV site (N); made in house; host or cells: Escherichia coli BL21 (DE3), pET29a(+)
- experimentNotes: Fluorescence-based microplate inhibition assay, hSULT1A3-catalyzed HN-241 4-O-sulfation
- Assay type: biochemical
- runParameters: read-out: Residue activity (%) hSULT1A3
endpointLabel: activity at 10 µM (%)

- COc1cc([C@@H]2c3cc4c(cc3[C@H](O)[C@H]3COC(=O)[C@H]23)OCO4)cc(OC)c1OC [Podophyllotoxin]: 111
- C[C@]12CC[C@H](O)C[C@H]1CC[C@@H]1[C@@H]2CC[C@]2(C)[C@@H](c3ccc(=O)oc3)C[C@H]3O[C@]132 [Resibufogenin]: 113
- C=C(C)[C@H]1Cc2c(ccc3c2O[C@@H]2COc4cc(OC)c(OC)cc4[C@@H]2C3=O)O1 [Rotenone]: 106
- C[C@]12CC[C@H](O)C[C@H]1CC[C@@H]1[C@@H]2CC[C@]2(C)[C@@H](c3ccc(=O)oc3)CC[C@]12O [Bufalin]: 124
